I'd appreciate it if you could supply cAMP Rel EC50, nM (1% HSA) values for the items below.
- SYSTEM_NAME: hGLP-1R (Homo sapiens, UniProt P43220)
- Sequence (P43220 24-463): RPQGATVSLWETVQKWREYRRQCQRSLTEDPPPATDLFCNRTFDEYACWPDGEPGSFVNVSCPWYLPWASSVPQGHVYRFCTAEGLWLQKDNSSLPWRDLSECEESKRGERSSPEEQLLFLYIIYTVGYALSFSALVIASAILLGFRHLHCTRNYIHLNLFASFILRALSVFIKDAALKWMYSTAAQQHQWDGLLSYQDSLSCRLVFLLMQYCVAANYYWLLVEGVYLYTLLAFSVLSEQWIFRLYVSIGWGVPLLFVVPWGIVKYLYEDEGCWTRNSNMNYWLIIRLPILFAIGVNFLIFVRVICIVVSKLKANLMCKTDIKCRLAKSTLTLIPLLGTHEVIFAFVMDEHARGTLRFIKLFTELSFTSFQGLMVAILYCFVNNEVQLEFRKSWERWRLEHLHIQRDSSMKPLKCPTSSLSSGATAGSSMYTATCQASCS
- ASSAY: cell-based or functional assay
Numbers only, in nM.

- BINDER: "YXQGTFTSDFSXXLDKKAQXAFIEYLLEAGPSSGAPPPEGE (acylated; synthetic construct; SITE 2: note = 2-Aminoisobutyric Acid; SITE 12: note = L-ornithine; SITE 13: note = alpha-methyl-leucine; SITE 17: note = Lysine is chemically modified through conjugation of the epsilon-amino group of the Lysine side chain with (2-[2-(2-Amino-ethoxy)-ethoxy]-acetyl)-(gamma-Glu)) [Example 206]"
  UNIT_LABEL: "nM"
  cAMP Rel EC50, nM (1% HSA): 372
- BINDER: "YXQGTFTSDFSQXLDKKAQXAFIEYLIEXGESSGAPPPSGE (acylated; synthetic construct; SITE 2: note = 2-Aminoisobutyric Acid; SITE 13: note = alpha-methyl-leucine; SITE 17: note = Lysine is chemically modified through conjugation of the epsilon-amino group of the Lysine side chain with (2-[2-(2-Amino-ethoxy)-ethoxy]-acetyl)-(gamma-Glu)-CO-(CH2) 16-CO2H; SITE 20: n) [Example 233]"
  UNIT_LABEL: "nM"
  cAMP Rel EC50, nM (1% HSA): 223

Continue with the binder presented below.
Query string: What value of measured cAMP Rel EC50, nM (1% HSA) is listed for YXQGTFTSDXSXXLDXKAQXEFIEXLIAGGPSSGAPPPSGSEE (non-natural residues; lipidated Lys (γGlu)2-C18 diacid; C-term amide; synthetic construct; SITE 2: note = 2-Aminoisobutyric Acid; SITE 10: note = 3-(4-Pyridyl)-L-alanine; SITE 12: note = L-ornithine; SITE 13: note = alpha-methyl-leucine; SITE 16: note = L-ornithine; SITE 17: note = Lysine is chemically modified through conjugation of the epsilon-amino group of the Lys) [Example 993] ?
Result string: 1210
